Assay: qHTS of pediatric cancer cell lines to identify multiple opportunities for drug repurposing: Confirmatory screen for RD cells (AID 1347124);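 note: cells exposed to compound for 48 h before viability readout; nearly all actives have a fitted effect of over 65% in size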
Conditions: RD rhabdomyosarcoma cell viability; series mostly up to 45.9 µM
Inconclusive results are not listed. Active and inactive are the calls of the source. Calls come from the whole dose curve; as a rule, active = well fitted cell-killing curve with a large enough effect; inconclusive = small, poorly fitted or top-dose-only effect, or effect the other way; inactive = no such curve, though single readings can be large or run the other way.
Answer with one of the outcomes given here: 1 for active, -1 for inactive

Below are worked cases with known answers.
{"COMPOUND STRUCTURE STRING": "CC[C@H]1C=CC=CC[C@@H](C)[C@H](O)[C@@](C)(O)C(=O)[C@@H](C)[C@H](O)[C@@H](C)C(=O)[C@@H](C)[C@H](O)[C@@H](C)C=CC(=O)O[C@@H]2[C@@H](C)[C@H](CC1)O[C@]1(CC[C@H](C)[C@H](C[C@@H](C)O)O1)[C@H]2C", "CATEGORY": 1}
{"COMPOUND STRUCTURE STRING": "CC(C)N[C@@H]1CCn2c(=O)[nH]c3cccc(c32)[C@@H]1O", "CATEGORY": -1}
{"COMPOUND STRUCTURE STRING": "Cc1ccccc1-n1c(Cn2cnc3c(N)ncnc32)nc2cccc(C)c2c1=O", "CATEGORY": -1}

So what was the verdict on Cc1[nH]nc2ccc(-c3cncc(OC[C@@H](N)Cc4c[nH]c5ccccc45)c3)cc12 in this test?
-1

====

Conditions: Ebola virus entry assay, ratio channel
The source made the active and inactive calls. How the calls were made is not given here.
Answer with one of the outcomes given here: label 1 (active), label 0 (inactive)

Below are worked cases with known answers.
{"COMPOUND": "C[N+](C)(C)CC(=O)O", "CATEGORY": "label 0"}
{"COMPOUND": "O=[N+]([O-])c1ccc([As](=O)(O)O)cc1", "CATEGORY": "label 0"}
{"COMPOUND": "O=C(Nc1ccccc1-c1ccc(Cl)cc1)c1cccnc1Cl", "CATEGORY": "label 1"}

So what was the verdict on CCCCC(CC)COC(=O)/C=C/c1ccc(OC)cc1 (configuration not stated) in this test?
label 0

And what about the compound CN(C)CC/C=C1/c2ccccc2COc2ccc(CC(=O)O)cc21 ?
label 0

And what about the compound CC1=C(/C=C/C(C)=C/C=C/C(C)=C/C(=O)O)C(C)(C)CCC1 ?
label 0

And what about the compound CC(C)(C)C(O)/C=C/c1ccc2c(c1)OCO2 (configuration not stated) ?
label 0

And what about the compound CCCN(CCC)c1c([N+](=O)[O-])cc(S(N)(=O)=O)cc1[N+](=O)[O-] ?
label 1

And what about the compound Nc1ccc(O)c([N+](=O)[O-])c1 ?
label 0

And what about the compound CCOP(=O)(NC(C)C)Oc1ccc(SC)c(C)c1 (configuration not stated) ?
label 0

And what about the compound CCCCCCCC(=O)OCC(O)CO (configuration not stated) ?
label 0

And what about the compound C=CCC1=C(C)C(OC(=O)C2C(C=C(C)C)C2(C)C)CC1=O (configuration not stated) ?
label 0

====

Assay: qHTS of pediatric cancer cell lines to identify multiple opportunities for drug repurposing: Primary screen for LAN-5 cells (AID 1347100);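 note: plate controls were DMSO neutral control for no effect and bortezomib positive control for full effect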
Conditions: LAN-5 neuroblastoma viability, CellTiter-Glo luminescence, 48 h; series mostly up to 46 µM
Records with an inconclusive call do not appear. Activity calls are given as the source filed them. The call rests on the fitted dose curve; in most records, active means well fitted cell-killing curve with a large enough effect; inconclusive means small, poorly fitted or top-dose-only effect; inactive means no such curve, though single readings can be large or run the other way.
Answer with one of the outcomes given here: Y for active, N for inactive

Below are worked cases with known answers.
{"MOLECULE": "CC(O)CN1CCN(CC(=O)[O-])CCN(CC(=O)[O-])CCN(CC(=O)[O-])CC1.[Gd+3] (stereo not given)", "CATEGORY": "N"}
{"MOLECULE": "O=[N+]([O-])c1c2ccccc2cc2ccccc12", "CATEGORY": "N"}

So what was the verdict on O=[N+]([O-])/N=C1\NCCN1Cc1ccc(Cl)nc1 in this test?
N

And what about the molecule CC(C)(C)NC[C@H](O)c1ccc(O)cc1Cl ?
N

And what about the molecule Fc1cc(Br)ccc1CBr ?
N

And what about the molecule O=C(N[C@@H](COc1ccc2[nH]c(=O)[nH]c2c1)c1ccccc1)c1cccn(Cc2ccc(F)c(F)c2)c1=O ?
N
